Target: T1, IL23R_huFC (human, UniProt Q5VWK5 24-353)
T1 sequence (looked up): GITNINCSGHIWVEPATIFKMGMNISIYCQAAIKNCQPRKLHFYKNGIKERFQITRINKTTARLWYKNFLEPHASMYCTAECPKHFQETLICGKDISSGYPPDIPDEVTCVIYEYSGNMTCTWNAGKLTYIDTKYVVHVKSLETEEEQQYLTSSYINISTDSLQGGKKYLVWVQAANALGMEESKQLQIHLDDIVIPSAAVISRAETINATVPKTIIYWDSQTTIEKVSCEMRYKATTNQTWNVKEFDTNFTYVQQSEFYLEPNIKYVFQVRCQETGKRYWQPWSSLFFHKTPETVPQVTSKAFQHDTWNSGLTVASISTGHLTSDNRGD
Experiment: IL23-IL23R competitive ELISA, IC50 grade
readout: IC50

I have this binder here, CADWVCYWHTFGAK (not fully specified; Ac-; [β-Ala]; [(D)Lys]; DIG through Lysine) [(Ac-CADWVCYWHTFG-[β-Ala]-[(D)Lys]-OH)2DIG] , and I need its recorded IC50.
25 to 100 nM
